targetEntity: GST-tagged truncated LRRK2 (Homo sapiens (Human), UniProt Q5S007)
Sequence (Q5S007 970-2527): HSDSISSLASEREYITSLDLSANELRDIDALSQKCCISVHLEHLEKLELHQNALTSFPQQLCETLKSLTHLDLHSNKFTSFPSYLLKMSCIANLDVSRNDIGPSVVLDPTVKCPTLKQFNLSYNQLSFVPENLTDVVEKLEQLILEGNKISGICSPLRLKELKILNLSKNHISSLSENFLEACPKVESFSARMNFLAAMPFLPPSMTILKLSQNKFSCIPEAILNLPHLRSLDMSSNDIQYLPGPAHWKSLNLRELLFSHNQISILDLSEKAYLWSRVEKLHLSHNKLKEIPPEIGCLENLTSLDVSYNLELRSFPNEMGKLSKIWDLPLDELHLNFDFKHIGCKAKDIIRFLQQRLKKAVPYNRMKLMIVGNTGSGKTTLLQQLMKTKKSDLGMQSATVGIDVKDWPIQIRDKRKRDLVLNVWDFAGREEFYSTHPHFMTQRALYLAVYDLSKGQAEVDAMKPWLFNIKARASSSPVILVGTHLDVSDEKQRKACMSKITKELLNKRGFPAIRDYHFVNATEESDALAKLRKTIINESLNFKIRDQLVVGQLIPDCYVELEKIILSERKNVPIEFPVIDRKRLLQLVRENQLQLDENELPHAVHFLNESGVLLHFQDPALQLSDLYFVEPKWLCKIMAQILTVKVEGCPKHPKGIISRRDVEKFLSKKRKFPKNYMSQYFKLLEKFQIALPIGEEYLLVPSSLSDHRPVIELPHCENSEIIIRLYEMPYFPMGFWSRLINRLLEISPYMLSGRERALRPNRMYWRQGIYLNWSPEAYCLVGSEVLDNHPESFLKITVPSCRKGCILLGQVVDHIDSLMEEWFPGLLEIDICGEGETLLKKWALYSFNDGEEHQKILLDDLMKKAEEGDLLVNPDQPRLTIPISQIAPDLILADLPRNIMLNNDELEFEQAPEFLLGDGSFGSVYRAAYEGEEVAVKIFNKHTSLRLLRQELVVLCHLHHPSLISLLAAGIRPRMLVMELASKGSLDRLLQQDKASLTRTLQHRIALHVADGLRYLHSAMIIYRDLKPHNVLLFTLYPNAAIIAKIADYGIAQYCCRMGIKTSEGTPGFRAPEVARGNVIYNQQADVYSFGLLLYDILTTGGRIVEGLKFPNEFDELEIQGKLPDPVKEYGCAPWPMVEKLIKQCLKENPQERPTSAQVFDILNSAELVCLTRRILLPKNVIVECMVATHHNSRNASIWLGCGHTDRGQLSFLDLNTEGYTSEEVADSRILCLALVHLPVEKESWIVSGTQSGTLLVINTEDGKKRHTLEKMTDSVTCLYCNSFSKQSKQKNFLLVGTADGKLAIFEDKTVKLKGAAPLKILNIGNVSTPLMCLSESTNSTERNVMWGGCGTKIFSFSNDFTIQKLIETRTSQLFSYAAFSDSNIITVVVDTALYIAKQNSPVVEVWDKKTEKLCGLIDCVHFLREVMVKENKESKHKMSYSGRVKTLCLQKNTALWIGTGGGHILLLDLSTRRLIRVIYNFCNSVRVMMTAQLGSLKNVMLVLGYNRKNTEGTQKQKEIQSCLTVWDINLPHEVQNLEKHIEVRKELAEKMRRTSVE
methodNotes: LRRK2 Lantha Screen kinase assay
details: geometric mean of 2-5 determinations unless otherwise indicated (a: >=6 determinations; b: single determination); read-out: LRRK2 WT IC50
Assignment: determine reported IC50 for the given molecules.
All answers are understood in nM, so give the number only.

// output IC50; input Cn1cc(-c2c[nH]c3ncnc(N4CCCC(O)C4)c23)cn1 (centres unmarked) [Example 120] ; system GST-tagged truncated LRRK2 (Homo sapiens (Human), UniProt Q5S007)
44

// output IC50; input N#Cc1cccc(-c2c[nH]c3ncnc(N4CCC(F)CC4)c23)c1 [Example 33] ; system GST-tagged truncated LRRK2 (Homo sapiens (Human), UniProt Q5S007)
17

// output IC50; input N#Cc1cccc(-c2c[nH]c3ncnc(N4CC[C@H](F)C4)c23)c1 [Example 35] ; system GST-tagged truncated LRRK2 (Homo sapiens (Human), UniProt Q5S007)
30

// output IC50; input Fc1cccc(-c2c[nH]c3ncnc(N4CCOCC4)c23)c1 [Example 91] ; system GST-tagged truncated LRRK2 (Homo sapiens (Human), UniProt Q5S007)
9

// output IC50; input COc1ccc(F)cc1-c1c[nH]c2ncnc(N(C)C)c12 [Example 183] ; system GST-tagged truncated LRRK2 (Homo sapiens (Human), UniProt Q5S007)
13
